Recorded values, source patent US6620831B2.

MEASURED ON: CDK2/cyclin A (Homo sapiens)
ASSAY PROTOCOL: CDK2 inhibitory activity (CDK2/cyclin A, [gamma-32P] ATP, histon H1 or Rb protein substrate)
ASSAY CONDITIONS: first IC50 column (c1) of Table 1
pIC50: −log10 of the molar value.
The following molecules are shown together with reported pIC50 values.

>  <SMILES REPRESENTATION>
CCOc1ccc(CC(=O)Nc2n[nH]c3ccc(N4CCCS4(=O)=O)cc23)cc1S(=O)(=O)N1CCN(C)CC1

>  <MEASURED VALUE>
> 6.00

$$$$
>  <SMILES REPRESENTATION>
CC(=O)Nc1nc(CC(=O)Nc2n[nH]c3ccc(N4CCCS4(=O)=O)cc23)cs1

>  <MEASURED VALUE>
> 5.00

$$$$
>  <SMILES REPRESENTATION>
O=C(CCc1ccccc1)Nc1n[nH]c2ccc(N3CCCS3(=O)=O)cc12

>  <MEASURED VALUE>
> 6.00

$$$$
>  <SMILES REPRESENTATION>
O=C(Cc1ccc(OCc2ccccc2)cc1)Nc1n[nH]c2ccc(N3CCCS3(=O)=O)cc12

>  <MEASURED VALUE>
> 7.00

$$$$

*Q* Fill in pIC50 for "O=C(Cc1cccc([N+](=O)[O-])c1)Nc1n[nH]c2ccc(N3CCCS3(=O)=O)cc12" tested with CDK2/cyclin A (Homo sapiens).
*A* > 7.30

*Q* Please look at "Nc1cccc(CC(=O)Nc2n[nH]c3ccc(N4CCCS4(=O)=O)cc23)c1" and tell me its recorded pIC50 on CDK2/cyclin A (Homo sapiens).
*A* > 7.30

*Q* Consider the molecule "O=C(Cc1ccc(CN2CCOCC2)cc1)Nc1n[nH]c2ccc(N3CCCS3(=O)=O)cc12" tested on CDK2/cyclin A (Homo sapiens); state its pIC50.
*A* > 7.00

----------
MEASURED ON: CDK2/cyclin A (Homo sapiens, UniProt P24941)
ASSAY PROTOCOL: CDK2 inhibitory activity (CDK2/cyclin A, [gamma-32P] ATP, histon H1 or Rb protein substrate)
ASSAY CONDITIONS: first IC50 column (c1) of Table 1
pIC50: −log10 of the molar value.
MEASUREMENT NAME: pIC50

>  <SMILES REPRESENTATION>
CCOc1ccc(CC(=O)Nc2n[nH]c3ccc(N4CCCS4(=O)=O)cc23)cc1S(N)(=O)=O

>  <MEASURED ON>
CDK2/cyclin A (Homo sapiens, UniProt P24941)

>  <MEASURED VALUE>
> 6.00

$$$$
>  <SMILES REPRESENTATION>
COc1ccc(N2CCN(CC(=O)Nc3n[nH]c4ccc(N5CCCS5(=O)=O)cc34)CC2)cc1

>  <MEASURED ON>
CDK2/cyclin A (Homo sapiens, UniProt P24941)

>  <MEASURED VALUE>
> 5.00

$$$$
>  <SMILES REPRESENTATION>
O=C(Cc1ccc2c(c1)OCO2)Nc1n[nH]c2ccc(N3CCCS3(=O)=O)cc12

>  <MEASURED ON>
CDK2/cyclin A (Homo sapiens, UniProt P24941)

>  <MEASURED VALUE>
> 7.30

$$$$

*Q* Give recorded pIC50. "O=C(Cc1ccc(Cl)c(Cl)c1)Nc1n[nH]c2ccc(N3CCCS3(=O)=O)cc12"
*A* > 7.30

*Q* Please look at this compound and report its pIC50: "O=C(CN1CCc2ccccc2C1)Nc1n[nH]c2ccc(N3CCCS3(=O)=O)cc12"
*A* > 6.00

*Q* Specify measured pIC50 for "CCN(CC)c1cccc(CC(=O)Nc2n[nH]c3ccc(N4CCCS4(=O)=O)cc23)c1" .
*A* > 6.30

*Q* Entry "O=C(Cn1cnc(-c2ccc(-c3ccccc3)cc2)c1)Nc1n[nH]c2ccc(N3CCCS3(=O)=O)cc12" needs its pIC50 filled in; supply it.
*A* > 6.30

*Q* State its pIC50: "O=C(Cn1cnc2ccccc21)Nc1n[nH]c2ccc(N3CCCS3(=O)=O)cc12"
*A* > 7.30
